Test system: IGROV1 ovarian
Experiment: NCI-60 one-dose screen, 48 h
Settings: 10 µM unless noted
Protocol: Growth inhibition of the IGROV1 human tumor cell line is measured as a screen for anti-cancer activity. Cells are grown in 96 well plates and exposed to the test compound for 48 hours. Compounds are tested at a single concentration, which is 10^-5 M for most compounds. The reported endpoint is percent growth (GI% or GIPRCNT), where numbers from 0 - 100% represent growth inhibition, and numbers from -100% - 0 represent cell death. For example, a value of 40 represents 60% growth inhibition. […]
About 83,000 compounds went through this panel and 20% of them were active in at least one assay; those are over-represented in the sample as a whole. Activity calls are given as the source filed them. How the source made its calls: active means growth percent below 10; inactive means the rest.
Mark one answer only. Choices: 1 = active, 0 = inactive

Completed entries (count: 8):
COCCNC(C(=O)c1ccccc1)c1ccccc1 (centres undefined); 0
CCc1c(C)c2cc(-n3c(-c4ccc(OC)cc4)csc3=N)c(O)c(C)c2oc1=O; 0
CCn1c(C)nc([N+](=O)[O-])c1Sc1nc(N)nc2nc[nH]c12; 0
CS(=O)(=O)OCC(COS(C)(=O)=O)C(c1ccccc1)c1ccccc1; 0
COc1cc(NC(C)CCCN2C(=O)c3ccccc3C2=O)c2ncccc2c1OC (centres undefined); 0
Cc1ccc(-c2cc(-c3nnc(SCC(=O)c4ccccc4)o3)c3ccccc3n2)cc1; 0
CCC1S/C(=N\N=C(/C)c2cccs2)N(c2ccccc2)C1=O (centres undefined); 1
COC(=O)c1ccc2c(c1)Oc1ccc(Cl)cc1-c1cc(C)nn1-2; 0

input: // param item: FC(F)(F)c1cccc([Si](F)(c2cccc(C(F)(F)F)c2)c2cccc(C(F)(F)F)c2)c1 ; yields the recorded call
output: 0

input: And what about the molecule COc1ccc(-c2c(C#N)cnc(N)c2-c2nc3cc(C)c(C)cc3[nH]2)cc1 ?
output: 0

input: And what about the molecule COc1ccc(-c2nn(-c3cccc(Cl)c3)cc2-c2cc(-c3ccc(Br)cc3)[nH]c(=O)c2C#N)cc1 ?
output: 0
